# studySystem: Aminopeptidase N (Plasmodium falciparum FcB1/Columbia)
# Sequence (O96935 whole entry): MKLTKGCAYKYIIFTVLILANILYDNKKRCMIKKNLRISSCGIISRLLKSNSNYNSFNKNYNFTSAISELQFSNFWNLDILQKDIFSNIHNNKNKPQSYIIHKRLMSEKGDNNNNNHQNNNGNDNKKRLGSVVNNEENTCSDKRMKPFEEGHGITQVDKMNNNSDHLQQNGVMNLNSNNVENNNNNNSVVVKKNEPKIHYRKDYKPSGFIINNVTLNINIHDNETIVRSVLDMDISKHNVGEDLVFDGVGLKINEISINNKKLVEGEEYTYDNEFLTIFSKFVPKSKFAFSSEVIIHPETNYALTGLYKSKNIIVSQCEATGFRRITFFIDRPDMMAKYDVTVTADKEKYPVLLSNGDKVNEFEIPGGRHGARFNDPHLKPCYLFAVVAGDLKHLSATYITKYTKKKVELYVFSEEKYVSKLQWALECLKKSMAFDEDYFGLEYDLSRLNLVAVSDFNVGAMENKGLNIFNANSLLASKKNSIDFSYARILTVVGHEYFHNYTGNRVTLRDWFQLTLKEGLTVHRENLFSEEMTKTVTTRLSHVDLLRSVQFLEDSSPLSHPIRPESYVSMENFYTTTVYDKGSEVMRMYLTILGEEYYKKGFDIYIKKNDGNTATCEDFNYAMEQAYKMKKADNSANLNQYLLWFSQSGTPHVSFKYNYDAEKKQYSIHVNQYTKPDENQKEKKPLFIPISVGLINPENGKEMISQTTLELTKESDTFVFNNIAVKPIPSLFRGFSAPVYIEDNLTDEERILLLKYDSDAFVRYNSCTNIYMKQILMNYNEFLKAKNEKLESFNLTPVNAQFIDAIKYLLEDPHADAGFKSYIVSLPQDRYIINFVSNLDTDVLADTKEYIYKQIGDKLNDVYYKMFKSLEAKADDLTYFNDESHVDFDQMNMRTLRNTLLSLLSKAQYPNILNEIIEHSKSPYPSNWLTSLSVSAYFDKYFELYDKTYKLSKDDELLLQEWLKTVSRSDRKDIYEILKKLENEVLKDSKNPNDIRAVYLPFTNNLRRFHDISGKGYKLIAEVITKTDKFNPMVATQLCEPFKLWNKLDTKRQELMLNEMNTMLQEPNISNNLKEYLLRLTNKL
# procedureDetails: malaria alanyl aminopeptidase activity blockers – biochemical, fluorogenic H-Leu-NHMec substrate, 1536-well (AID 1445)
# Set-up: species or system Plasmodium falciparum 3D7, 3D7
The source made the active and inactive calls. How the calls were made is not given here.
Consider the following molecules; for each one, report its IC50.

Enquiry: Bench note: what IC50 did "CCOC(=O)COc1ccc(Br)cc1/C=C/c1nc(O)nc(O)c1[N+](=O)[O-]" show?
Return: 25.4 µM (active)

Enquiry: Now consider "NS(=O)(=O)c1ccc(CCNC(=O)Cc2ccc(S(=O)(=O)N3CCCC3)s2)cc1" .
Return: 8.91 µM (active)

Enquiry: Then what about the molecule CC(=O)Nc1cccc(NC(=O)C2CCCN2C(=O)Nc2ccc(C)cc2)c1 (stereo unspecified) ?
Return: 61.3 µM (active)

Enquiry: Likewise for "Cc1ccc(O)c(/N=C/C2=C(O)c3ccccc3C2=O)c1" ?
Return: 71.9 µM (active)

Enquiry: // same read-out, input: "CCCN(C(=O)c1cc2c(s1)CCC2)c1c(N)n(Cc2ccccc2)c(=O)[nH]c1=O"
Return: 77.2 µM (active)

Enquiry: Then "CCCOc1ccc(C(=O)N/N=C/c2ccc(-c3ccc(S(=O)(=O)Nc4ncccn4)cc3)o2)cc1" ?
Return: 26.1 µM (active)
